# assayInfo: Solubility in excipients and solvents by HPLC analysis
# Type: physicochemical
# measurementContext: Tween 20, aqueous with cosolvent or surfactant or cyclodextrin, thermodynamic from solid, in Tween 20
measuredQuantity: solubility at 1 h

Note down solubility at 1 h recorded for "Cc1c(N)cccc1Cn1ccc(OCCc2cccs2)cc1=O"
> 20 mg/mL

* * *

# assayInfo: Solubility in excipients and solvents by HPLC analysis
# Assay type: physicochemical
# measurementContext: Capryol 90, oil or lipid, thermodynamic from solid, in Capryol 90
measuredQuantity: solubility at 1 h (µg/mL)
Give your result in µg/mL as a bare value.

Note down solubility at 1 h recorded for Cc1c(N)cccc1Cn1ccc(OCCc2cccs2)cc1=O [Compound of formula 1]
2900

* * *

# assayInfo: Solubility in excipients and solvents by HPLC analysis
# Format: physicochemical
# measurementContext: methyl chloride, organic solvent or mixture, thermodynamic from solid, in Methyl chloride
measuredQuantity: solubility at 1 h

Note down solubility at 1 h recorded for "Cc1c(N)cccc1Cn1ccc(OCCc2cccs2)cc1=O"
~60 mg/mL

* * *

# assayInfo: Stability after dilution of prepared freeze-dried powder in physiological saline
# Assay type: physicochemical
# measurementContext: 16% HP-beta-cyclodextrin solution, 60 °C, aqueous with cosolvent or surfactant or cyclodextrin, thermodynamic from solid; in 16% HP-beta-cyclodextrin; read-out: highest solubility
measuredQuantity: Solubility (µg/mL)
Give your result in µg/mL as a bare value.

Note down Solubility recorded for "Cc1c(N)cccc1Cn1ccc(OCCc2cccs2)cc1=O"
3000

* * *

# Test system: Methicillin-susceptible Staphylococcus aureus strains
# assayInfo: Drug susceptibility (MIC) of methicillin-susceptible clinical isolates
# Assay type: cell-based
# measurementContext: Methicillin-susceptible, n = 103
The compounds listed here are annotated with their MIC Range.

Example entries begin here.
C[C@H]1COc2c(N3CCN(C)CC3)c(F)cc3c(=O)c(C(=O)O)cn1c23 | ≤0.06 to 32.0 mg/L
CCCCCCCCCC(=O)N[C@@H](Cc1c[nH]c2ccccc12)C(=O)N[C@H](CC(N)=O)C(=O)N[C@@H](CC(=O)O)C(=O)N[C@@H]1C(=O)NCC(=O)N[C@@H](CCCN)C(=O)N[C@@H](CC(=O)O)C(=O)N[C@H](C)C(=O)N[C@@H](CC(=O)O)C(=O)NCC(=O)N[C@H](CO)C(=O)N[C@@H]([C@H](C)CC(=O)O)C(=O)N[C@@H](CC(=O)c2ccccc2N)C(=O)O[C@@H]1C | 0.25 to 2.0 mg/L
CC(=O)NC[C@H]1CN(c2ccc(N3CCOCC3)c(F)c2)C(=O)O1 | 0.25 to 2.0 mg/L
CN[C@H](CC(C)C)C(=O)N[C@H]1C(=O)N[C@@H](CC(N)=O)C(=O)N[C@H]2C(=O)N[C@H]3C(=O)N[C@H](C(=O)N[C@H](C(=O)O)c4cc(O)cc(O)c4-c4cc3ccc4O)[C@H](O)c3ccc(c(Cl)c3)Oc3cc2cc(c3O[C@@H]2O[C@H](CO)[C@@H](O)[C@H](O)[C@H]2O[C@H]2C[C@](C)(N)[C@H](O)[C@H](C)O2)Oc2ccc(cc2Cl)[C@H]1O | 1.0 to 2.0 mg/L

# ---- query compound ----
Note down MIC Range recorded for "Cc1c(N)cccc1Cn1ccc(OCCc2cccs2)cc1=O"
0.06 to 1.0 mg/L

* * *

# assayInfo: Solubility in excipients and solvents by HPLC analysis
# Type: physicochemical
# measurementContext: oleic acid, oil or lipid, thermodynamic from solid, in Oleic acid
measuredQuantity: solubility at 1 h (µg/mL)
Give your result in µg/mL as a bare value.

Note down solubility at 1 h recorded for Cc1c(N)cccc1Cn1ccc(OCCc2cccs2)cc1=O [Compound of formula 1]
2000

Values were extracted from patent US20220031607A1.
